// provenance: patent US11357779B2

- test details: Steady-state AUC0-24,ss, (AUC0-24,ss)/dose, half-life and time to steady state: Compound I versus palbociclib, ribociclib, abemaciclib
- Type: in vivo, human
- study conditions: human, plasma, oral; 400 mg QD of Form B of Compound II, Day 29; read-out: Mean AUC0-24,ss
property measured: AUC(0-t) (ng·h/mL)
Please state the figure in ng·h/mL; there is no need to write the unit.

Task: Given CC(C)N1CCN(c2ccc(Nc3ncc4cc5n(c4n3)C3(CCCCC3)CNC5=O)nc2)CC1 [Compound I] , state its recorded AUC(0-t).
Output: 278

###

- test details: Plasma concentration versus time of Compound I and metabolite Compound III in patients dosed QD or BID with Form B of Compound II plus fulvestrant
- Assay type: in vivo, human
- study conditions: human, plasma, oral, 300 mg, 300 mg QD of Form B, Day 29, 3.0 h, Mean; read-out: Compound I Concentration
property measured: concentration at 3 h (ng/mL)
Please state the figure in ng/mL; there is no need to write the unit.

Task: Given CC(C)N1CCN(c2ccc(Nc3ncc4cc5n(c4n3)C3(CCCCC3)CNC5=O)nc2)CC1 , state its recorded concentration at 3 h.
Output: 31

###

- test details: Plasma concentration versus time of Compound I and metabolite Compound III in patients dosed QD or BID with Form B of Compound II plus fulvestrant
- Assay type: in vivo, human
- study conditions: human, plasma, oral, 200 mg, 200 mg BID of Form B, Day 1, 1.0 h, Mean; read-out: Compound I Concentration
property measured: concentration at 1 h (ng/mL)
Please state the figure in ng/mL; there is no need to write the unit.

Task: Given CC(C)N1CCN(c2ccc(Nc3ncc4cc5n(c4n3)C3(CCCCC3)CNC5=O)nc2)CC1 [Compound I] , state its recorded concentration at 1 h.
Output: 5.79

###

- test details: Pharmacokinetics of Compound I in healthy volunteers after a single dose of Form B of Compound II
- Type: in vivo, human
- study conditions: human, blood, oral, single 100 mg dose of Form B of Compound II
- Protocol: Table 84 provides the pharmacokinetic parameters of Compound I upon administration of a single dose of Form B of Compound II (48, 100, 200, 300, 400, or 600 mg) in healthy volunteers. Blood samples for analysis of Compound I were collected pre-dose and 0.25, 0.5, 1, 1.5, 2, 3, 4, 6, 8, 12, 24, 36, 48, 72, and 96 hours post-dose.
property measured: Tmax (h)
Please state the figure in h; there is no need to write the unit.

Task: Given CC(C)N1CCN(c2ccc(Nc3ncc4cc5n(c4n3)C3(CCCCC3)CNC5=O)nc2)CC1 , state its recorded Tmax.
Output: 2

###

- test details: Noncompartmental pharmacokinetic parameters (Cmax, Tmax, AUC, Racc) in QD and BID cohorts of Form B
- Type: in vivo, human
- study conditions: human, plasma, oral, 200 mg, Compound III; 200 mg BID of Form B; Cohort 8; Day 1; read-out: Tmax (Mean)
- Description: Analysis of plasma concentration versus time data for calculation of standard pharmacokinetic (PK) parameters following oral administration was conducted using Phoenix WinNonlin version 6.3 using actual blood sampling times. […]
property measured: Tmax
Give the value; after it, write the unit.

Task: Given O=C1NCC2(CCCCC2)n2c1cc1cnc(Nc3ccc(N4CCNCC4)cn3)nc12 [Compound III] , state its recorded Tmax.
Output: 4.75 h
